B1: Homeobox protein cut-like 2, residues 895 to 963; numbered along this chain, O14529 (parent)
chain: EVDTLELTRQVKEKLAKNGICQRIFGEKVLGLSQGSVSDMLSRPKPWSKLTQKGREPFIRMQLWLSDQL

Variants of: B1
Assay: abundance fitness (aPCA) (normalised: wild type 0, dead -1); higher = more abundant; growth selection in yeast, the domain comes from the species named
Details: Homo sapiens
result-type: abundance fitness
Just the number, please.

Can you look up the measured abundance fitness of L65T for me?
-0.975

K49T ?
-0.035

L15W ?
-0.338
